molecular target: TDP-43 (Homo sapiens, UniProt Q13148 1-414); assay: RNA Bind-n-Seq with designed 260-mer pool; 25 mM Tris-HCl, 150 mM KCl, 3 mM MgCl2, BSA (printed 500 mg/mL), 20 units/mL SUPERase IN; pH not stated; 500 nM RNA pool, 1 h, 4 C; TDP-43 5, 50, 500 nM; high values mean tight binding; conditions: protein: recombinant; tags: SBP (GST cleaved off with PreScission; pGEX-GST-SBP)
Sequence (Q13148 whole entry): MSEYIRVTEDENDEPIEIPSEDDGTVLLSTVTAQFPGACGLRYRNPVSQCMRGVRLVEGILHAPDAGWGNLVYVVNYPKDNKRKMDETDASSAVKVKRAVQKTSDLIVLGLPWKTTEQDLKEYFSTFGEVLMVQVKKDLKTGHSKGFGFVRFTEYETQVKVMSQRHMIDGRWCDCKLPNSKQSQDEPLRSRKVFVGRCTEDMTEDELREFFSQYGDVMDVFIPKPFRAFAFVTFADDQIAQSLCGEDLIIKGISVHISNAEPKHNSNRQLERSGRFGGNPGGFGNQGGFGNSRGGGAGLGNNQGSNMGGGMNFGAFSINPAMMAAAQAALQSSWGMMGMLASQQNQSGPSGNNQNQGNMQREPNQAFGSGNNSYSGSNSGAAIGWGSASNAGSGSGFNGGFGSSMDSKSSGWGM
In all, about 9,900 sequences were measured (“r (bound/input frequency ratio)”: median about 0.7, highest 2% from about 6.5 on). This is one part of a sample in which the highest values are shown more often than they occur.
Reported binding signal by item:

[
  {
    "binder": "ENSMUSG00000061578.732|Ksr2 (ssRNA) RNA: GGGAGUUCUACAGUCCGACGAUCGCUUCGAUAUCCGCAUGCUAGGGGUCAUUGUUCAAUCCUGUAUCAAGACCUUGGAGUUGUCUAAGGCUGUGGGUUUUAAAUACCUGCUGCAGGCCUCCCAUCUCUGGCUCUUUGUUUCCACUCUGGCCCAAGUUUGAGUCUCCAUAUGGGCCCUUCCUGUCCUCAUGCCCUGCCUGUCUUCAUUCCACCCAUCCACCCUCCUAAGGAUUGGUCUUGUUCCGAGAGUGAUCCUGGUAACGCCAAGCCUCCCUCUGCCCCUGUGUUGGCUUCUGUGACGGACCUCUUGCGGUCGCACUAGUGUGGAAUUCUCGGGUGUCAAGG",
    "binding signal": "1.54 R (bound/input frequency ratio)"
  }
]

Please look at the following binder next.
Record ENSMUSG00000043670.39|Diras1 (ssRNA) RNA: GGGAGUUCUACAGUCCGACGAUCGCUUCGAUAUCCGCAUGCUAGCUCCUGCUCCUUCUCCCCCUCCUUCCUUCCUUUGCCUUGCCCCUCCCUCCUCCAUCUCUCUUCCCUCUUCCUGUCCCCACCAGCCUACAGUAAGGUUGGGCUCCAUCCCUGCCUCUUCACACCUCCAUAGCUUCAUCCUUUGCAGACCUCUCCCUCUAUAUCUCUUUGCUCCCCCACCCCCAUUCUAUCUGCACCCCACAACCACACACUGGAGGUUUGAUCCCUGUGGAUCUGAAAACAGGGACCUGGCUAAGGAACUCUCUUGCGGUCGCACUAGUGUGGAAUUCUCGGGUGUCAAGG . Reported binding signal: 5.05 R (bound/input frequency ratio)
